method: chemical genetic growth profiling, strain panel (AID 1159580);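 also: tested at 20 µM; growth read once vehicle control cultures reached saturation at 30 °C; lower values mean less growth of the strain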
conditionDetails: S. cerevisiae deletion strains, growth OD, locus YBR023C, strain chs3
Screen size: about 5,500 compounds; about 2,000 (36%) were called active. Roughly 18% stayed inconclusive and do not appear here. Rule as the data show it: active = normalized growth mostly below about 0.91 (no sharp cut-off); inconclusive = no clear call, values can overlap the other calls; inactive = mostly above about 0.92. The list shows a part of the results.
Write down the outcome that applies. Available outcomes: True for active, False for inactive

Task: # fetch the recorded call for C=C[C@@H](C1=CC(=O)C(OC)=C(OC)C1=O)c1ccccc1 here
Result: True

Task: Could you kindly confirm the outcome this assay logged for COc1ccccc1OCCNCC(O)COc1cccc2[nH]c3ccccc3c12 (stereo unspecified) ?
Result: False

Task: Returns: the outcome recorded for NCCCC[C@H](N[C@@H](CCc1ccccc1)C(=O)O)C(=O)N1CCC[C@H]1C(=O)O in this assay.
Result: False

Task: # outcome recorded in this test, key = Nc1ncn([C@@H]2O[C@H](CO)[C@@H](O)[C@H]2O)c(=O)n1
Result: False

Task: I'd appreciate the recorded outcome for Cc1c(Nc2ncccc2C(=O)O)cccc1C(F)(F)F from this test.
Result: False

Task: Hi, sorry to bother you, what did the test record for COc1c2c(cc3c1OCO3)CCN(C)C2 ?
Result: False

Task: Outcome? N[C@@H](Cc1ccc(O)c(O)c1)C(=O)O
Result: False

Task: Could you check what this test reported for C=CC(C1=CC(=O)C(OC)=CC1=O)c1ccc(O)cc1 (stereo unspecified) ?
Result: False

Task: Short answer needed: outcome of this test for OC[C@@H](O)[C@@H](O[C@@H]1O[C@H](CO)[C@@H](O)[C@H](O)[C@H]1O)[C@H](O)[C@@H](O)CO ?
Result: False

Task: Which outcome was assigned to CCN(CC)CCNC(=O)c1cc(S(C)(=O)=O)ccc1OC in this test?
Result: False

Task: Name the outcome recorded for C=CC(C1=CC(=O)C(OC)=CC1=O)c1ccccc1 (stereo unspecified) in the assay.
Result: True
